PROTOCOL TEXT: Human liver S9 stability
Assay type: in vitro ADME
RUN PARAMETERS: human liver S9, test concentration 1 μM
MEASURED ENDPOINT: half-life at 1 μM (min)

1) CCOc1ccc2ccc(=O)oc2c1 [7-Ethoxycumarin]; 3.6
2) CC(C)OC(=O)[C@H](C)NP(=O)(OC[C@H]1O[C@@H](n2ccc(=O)[nH]c2=O)[C@](C)(F)[C@@H]1O)Oc1ccccc1 (stereo partly shown) [Patent compound 06 in 2008]; 115
3) Cc1ccccc1COP(=O)(N[C@@H](C)C(=O)OC(C)C)OC[C@H]1O[C@@H](n2ccc(=O)[nH]c2=O)[C@](C)(F)[C@@H]1O (single isomer, unassigned) [Unresolved enantiomer 02 of patent compounds in 2013]; 9.5
4) O=c1ccc2ccc(O)cc2o1 [7-Hydroxycoumarin]; 96.6

###

SYSTEM NAME: UniProt:Q12809
Sequence (Q12809 whole entry): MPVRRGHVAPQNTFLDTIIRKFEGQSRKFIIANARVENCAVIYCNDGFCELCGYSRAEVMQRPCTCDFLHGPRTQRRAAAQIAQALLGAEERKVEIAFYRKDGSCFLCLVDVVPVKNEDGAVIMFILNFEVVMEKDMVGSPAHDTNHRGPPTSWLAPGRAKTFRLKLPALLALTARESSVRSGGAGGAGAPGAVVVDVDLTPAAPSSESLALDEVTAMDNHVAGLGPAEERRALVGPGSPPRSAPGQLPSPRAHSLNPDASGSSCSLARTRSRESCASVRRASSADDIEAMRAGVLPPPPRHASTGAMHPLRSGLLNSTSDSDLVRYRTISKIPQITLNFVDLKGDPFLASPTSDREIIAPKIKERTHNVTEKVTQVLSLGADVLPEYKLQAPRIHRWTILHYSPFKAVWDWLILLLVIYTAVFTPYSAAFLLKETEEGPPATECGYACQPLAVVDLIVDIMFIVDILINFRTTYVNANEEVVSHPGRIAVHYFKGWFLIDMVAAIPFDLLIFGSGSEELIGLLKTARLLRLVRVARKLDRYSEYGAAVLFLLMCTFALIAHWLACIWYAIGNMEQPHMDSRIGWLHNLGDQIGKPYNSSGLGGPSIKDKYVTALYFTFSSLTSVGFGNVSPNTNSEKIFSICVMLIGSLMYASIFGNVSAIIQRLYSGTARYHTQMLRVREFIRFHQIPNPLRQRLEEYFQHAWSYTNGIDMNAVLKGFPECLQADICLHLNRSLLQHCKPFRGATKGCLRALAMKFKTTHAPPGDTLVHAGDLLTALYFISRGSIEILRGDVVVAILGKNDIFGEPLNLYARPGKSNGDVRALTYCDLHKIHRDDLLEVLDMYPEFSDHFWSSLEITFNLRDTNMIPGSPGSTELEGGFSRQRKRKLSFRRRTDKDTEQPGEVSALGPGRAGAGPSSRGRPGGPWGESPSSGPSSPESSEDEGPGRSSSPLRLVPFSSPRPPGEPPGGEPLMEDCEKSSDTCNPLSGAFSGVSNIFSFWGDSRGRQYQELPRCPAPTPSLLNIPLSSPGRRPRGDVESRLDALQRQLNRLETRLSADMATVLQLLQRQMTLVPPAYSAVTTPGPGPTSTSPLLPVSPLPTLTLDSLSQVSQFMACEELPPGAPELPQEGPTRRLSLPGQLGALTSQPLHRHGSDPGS
PROTOCOL TEXT: In vitro cardiotoxicity, hERG manual patch clamp in CHO cells
pIC50: −log10 of the molar value.
MEASURED ENDPOINT: pIC50

1) CC(C)OC(=O)[C@H](C)N[P@](=O)(OC[C@H]1O[C@@H](n2ccc(=O)[nH]c2=O)[C@](C)(F)[C@@H]1O)Oc1ccccc1 [Patent compound 06a in 2010]; < 5.00

###

Quick reference: CLlint(s9) of the listed items.
PROTOCOL TEXT: Human liver S9 stability
Assay type: in vitro ADME
RUN PARAMETERS: human liver S9, test concentration 1 μM, scaled per kg
MEASURED ENDPOINT: CLlint(s9) (mL/h/kg)

1. CCOc1ccc2ccc(=O)oc2c1; 41.01
2. CC(C)OC(=O)C(C)NP(=O)(OCc1ccccc1)OCC1OC(n2ccc(=O)[nH]c2=O)C(C)(F)C1O (mixture of isomers); 1.51
3. CC(C)OC(=O)[C@H](C)NP(=O)(OC[C@H]1O[C@@H](n2ccc(=O)[nH]c2=O)[C@](C)(F)[C@@H]1O)Oc1ccccc1 (some centres unmarked); 1.27
4. Cc1ccccc1COP(=O)(N[C@@H](C)C(=O)OC(C)C)OC[C@H]1O[C@@H](n2ccc(=O)[nH]c2=O)[C@](C)(F)[C@@H]1O (single isomer, unassigned) [Unresolved enantiomer 02 of patent compounds in 2013]; 15.34
5. O=c1ccc2ccc(O)cc2o1 [7-Hydroxycoumarin]; 1.51
